# TEST_NAME: chemical genetic growth profiling, strain panel (AID 1159580);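 note: tested at 20 µM; growth read once vehicle control cultures reached saturation at 30 °C; 1 = growth at the plate median or of vehicle wells; lower values mean less growth of the strain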
# ASSAY_CONTEXT: S. cerevisiae deletion strains, growth OD, locus YHR087W, strain rtc3, hits give low values
The whole screen tested about 5,500 compounds, of which about 2,000 (36%) were called active. Roughly 18% stayed inconclusive and do not appear here. The list shows a part of the results.
PROPERTY: normalized growth
Please reply with the number alone, leaving off any unit.

Looking up FC(F)(F)c1cc(-c2noc(C3CCc4ccccc4O3)n2)cc(C(F)(F)F)c1 (stereo unspecified) , I see its normalized growth listed as 0.994

Looking up `Cc1onc(-c2c(Cl)cccc2Cl)c1NC(=O)O/N=C\c1ccc(N(C)C)cc1` , I see its normalized growth listed as 1.02

Looking up `O=C1c2ccccc2C(=O)N1CN(CCSc1ccccc1)CN1C(=O)c2ccccc2C1=O` , I see its normalized growth listed as 0.986

Looking up `Cn1ncc(C(=O)O/N=C(/N)c2cc(C(F)(F)F)cc(C(F)(F)F)c2)c1-n1cccc1` , I see its normalized growth listed as 0.996

Looking up O=C(O)C1C2CCC1C(O)C2 (stereo unspecified) , I see its normalized growth listed as 0.99

Looking up `OCc1ccccc1-c1ccccc1` , I see its normalized growth listed as 1.01

---

# TEST_NAME: chemical genetic growth profiling, strain panel (AID 1159580)
# ASSAY_CONTEXT: S. cerevisiae deletion strains, growth OD, locus YNL006W, strain LST8, hits give low values
Among all 5,500 compounds or so, about 2,000 (36%) were called active. Another 18% or so got no clear call; they are omitted. The list shows a part of the results.
For each entry below, report its normalized growth value.
Please reply with the number alone, leaving off any unit.

Looking up `CSc1sc(C(=O)Sc2ccccc2)cc1S(=O)(=O)C(C)C` , I see its normalized growth listed as 0.997

Looking up `O=C(Nc1ccc(F)cc1F)c1cc(Cl)c(-n2cccc2)c(Cl)c1` , I see its normalized growth listed as 0.977

Looking up `N/C(Cc1cccc2ccccc12)=N/OC(=O)c1ccc(Cl)cc1` , I see its normalized growth listed as 0.977

Looking up `OC(COc1ccc(F)cc1)(c1ccc(Cl)cc1)c1ccc(Cl)cc1` , I see its normalized growth listed as 0.998

---

# TEST_NAME: chemical genetic growth profiling, strain panel (AID 1159580);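 note: tested at 20 µM; growth read once vehicle control cultures reached saturation at 30 °C; 1 = growth at the plate median or of vehicle wells; lower values mean less growth of the strain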
# ASSAY_CONTEXT: S. cerevisiae deletion strains, growth OD, locus YNL209W, strain ssb2
Out of some 5,500 compounds screened, about 2,000 (36%) were called active. Roughly 18% stayed inconclusive and do not appear here. No stated cut-off is given here; in the data, active means normalized growth mostly below about 0.91 (no sharp cut-off); inconclusive means no clear call, values can overlap the other calls; inactive means mostly above about 0.92. The list shows a part of the results.
Allowed answers: active, inactive

Qu. Please state the recorded outcome for this compound: `CCCN(CCC)S(=O)(=O)c1ccc(C(=O)O)cc1`
Ans. inactive

Qu. Please state the recorded outcome for this compound: `O=C1NC(O)=NC1(c1ccccc1)c1ccccc1`
Ans. inactive

Qu. Please state the recorded outcome for this compound: NCC(N)C(=O)c1ccccc1 (centres undefined)
Ans. inactive

Qu. Please state the recorded outcome for this compound: `CC[N+](C)(C)c1cccc(O)c1`
Ans. inactive

Qu. Please state the recorded outcome for this compound: `CCOC(=O)[C@H](CCc1ccccc1)N[C@@H](C)C(=O)N1CCC[C@H]1C(=O)O`
Ans. inactive

Qu. Please state the recorded outcome for this compound: `CNNC`
Ans. inactive

Qu. Please state the recorded outcome for this compound: CC(C)NCC(O)COc1ccc(COCCOC(C)C)cc1 (centres undefined)
Ans. inactive

Qu. Please state the recorded outcome for this compound: CCC(C)C(=O)OC1[C@@H]2CC3=C4CC(=O)O[C@@H](c5ccoc5)[C@]4(C)CCC3[C@@](C)(C2=O)[C@@H](CC(=O)OC)C1(C)C (some centres undefined)
Ans. inactive

Qu. Please state the recorded outcome for this compound: `NCC(=O)c1ccccc1`
Ans. inactive

Qu. Please state the recorded outcome for this compound: `O=C(OCc1ccccc1)c1ccccc1`
Ans. inactive

Qu. Please state the recorded outcome for this compound: COC1CC2CCC(C)C(O)(O2)C(=O)C(=O)N2CCCCC2C(=O)OC(C(C)CC2CCC(O)C(OC)C2)CC(=O)C(C)/C=C(\C)C(O)C(OC)C(=O)C(C)CC(C)/C=C/C=C/C=C/1C (centres undefined)
Ans. active

Qu. Please state the recorded outcome for this compound: `NC(=O)c1cccnc1`
Ans. inactive

Qu. Please state the recorded outcome for this compound: `COc1ccc2cc(CCC(C)=O)ccc2c1`
Ans. inactive

Qu. Please state the recorded outcome for this compound: `Nc1ccc(C(=O)O)cc1`
Ans. inactive

---

# TEST_NAME: chemical genetic growth profiling, strain panel (AID 1159580);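 note: tested at 20 µM; growth read once vehicle control cultures reached saturation at 30 °C; 1 = growth at the plate median or of vehicle wells; lower values mean less growth of the strain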
# ASSAY_CONTEXT: S. cerevisiae deletion strains, growth OD, locus YKL190W, strain CNB1, hits give low values
Screen size: about 5,500 compounds; about 2,000 (36%) were called active. Roughly 18% stayed inconclusive and do not appear here. This is one part of the list.
PROPERTY: normalized growth

Looking up `COc1ccc([C@@H]2CC(=O)c3c(O)cc(O[C@@H]4O[C@H](CO[C@H]5O[C@@H](C)[C@H](O)[C@@H](O)[C@H]5O)[C@@H](O)[C@H](O)[C@H]4O)cc3O2)cc1O` , I see its normalized growth listed as 1.01 (inactive)

Looking up `CN(C)C(=O)Oc1cccc([N+](C)(C)C)c1` , I see its normalized growth listed as 1 (inactive)

Looking up `CCCSc1ccc2nc(NC(=O)OC)[nH]c2c1` , I see its normalized growth listed as 0.988 (inactive)

Looking up `CC(C)=CCc1c2c(c3occ(-c4ccc(O)cc4)c(=O)c3c1O)C=CC(C)(C)O2` , I see its normalized growth listed as 0.772 (active)

Looking up `CCCOc1ccc2nc(NC(=O)OC)[nH]c2c1` , I see its normalized growth listed as 1.02 (inactive)

Looking up `O=C(O)C1=CCCNC1` , I see its normalized growth listed as 0.997 (inactive)

Looking up `CCOC(=O)CSc1nc2cc(C(F)(F)F)cnc2n1C` , I see its normalized growth listed as 1.01 (inactive)

Looking up `COc1cc(C(C)=O)cc(OC)c1O` , I see its normalized growth listed as 1.01 (inactive)

Looking up O=C(O)CSC1CCS(=O)(=O)C1 (configuration not stated) , I see its normalized growth listed as 1.01 (inactive)

Looking up `CCCc1cc(=O)oc2cc(OCC(=O)OCC)ccc12` , I see its normalized growth listed as 0.995 (inactive)

Looking up `Cc1cccc(C)c1N=C1SCCS1` , I see its normalized growth listed as 1 (inactive)

Looking up `Nc1ccc(C(=O)O)cc1` , I see its normalized growth listed as 0.996 (inactive)

---

For each entry below, report its normalized growth value.
# TEST_NAME: chemical genetic growth profiling, strain panel (AID 1159580);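 note: tested at 20 µM; growth read once vehicle control cultures reached saturation at 30 °C; 1 = growth at the plate median or of vehicle wells; lower values mean less growth of the strain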
# ASSAY_CONTEXT: S. cerevisiae deletion strains, growth OD, locus YER111C, strain swi4, hits give low values
Among all 5,500 compounds or so, about 2,000 (36%) were called active. Another 18% or so got no clear call; they are omitted. The list shows a part of the results.
Please reply with the number alone, leaving off any unit.

Looking up CC(=O)O[C@H]1CC[C@@]2(C)C(=CC(=O)C3C4CCC(C(C)CCCC(C)C)[C@@]4(C)CCC32)C1 (some centres undefined) , I see its normalized growth listed as 0.999

Looking up CCC(C)C(=O)OC1[C@@H]2CC3=C4CC(=O)O[C@@H](c5ccoc5)[C@]4(C)CCC3[C@@](C)(C2=O)[C@@H](CC(=O)OC)C1(C)C (some centres undefined) , I see its normalized growth listed as 0.99

Looking up `CN[C@@H]1[C@H](O)[C@H](NC)[C@H]2O[C@@]3(O)C(=O)C[C@@H](C)O[C@H]3O[C@@H]2[C@H]1O` , I see its normalized growth listed as 1.01

Looking up CC1(C)CC2C1CC[C@]1(C)CCC3C(C(=O)O)CC(=O)O[C@@]32C1 (some centres undefined) , I see its normalized growth listed as 1.01

Looking up `Oc1c(Cl)cc(Cl)cc1Sc1cc(Cl)cc(Cl)c1O` , I see its normalized growth listed as 0.0718

Looking up `O=C(O)c1cccnc1` , I see its normalized growth listed as 0.999

Looking up `CN(C)CCCN1c2ccccc2CCc2ccccc21` , I see its normalized growth listed as 0.99

Looking up `CC(=O)Oc1ccc(C(c2ccc(OC(C)=O)cc2)c2ccccn2)cc1` , I see its normalized growth listed as 1.01

Looking up `CC(=O)Oc1cccc(O)c1` , I see its normalized growth listed as 1.02

Looking up `CN(C)CCCN1c2ccccc2Sc2ccc(Cl)cc21` , I see its normalized growth listed as 0.977

Looking up `Nc1ccc(S(=O)(=O)NC(=O)c2ccccc2)cc1` , I see its normalized growth listed as 1.01

Looking up `O=C(O)c1ccc(S(=O)(=O)N(Cl)Cl)cc1` , I see its normalized growth listed as 0.982

Looking up `CNCCCC12CCC(c3ccccc31)c1ccccc12` , I see its normalized growth listed as 0.995

Looking up COc1ccccc1OCC(O)CO (centres undefined) , I see its normalized growth listed as 1.02

Looking up `O=C(NCO)c1cccnc1` , I see its normalized growth listed as 1

Looking up `CCCOc1ccc2nc(NC(=O)OC)[nH]c2c1` , I see its normalized growth listed as 1.01

Looking up `NC(=O)c1cccnc1` , I see its normalized growth listed as 0.985

Looking up `CC(=O)Oc1ccc(O)cc1` , I see its normalized growth listed as 0.969

Looking up `CC(=O)Oc1ccc(/C=C/c2cc(OC(C)=O)cc(OC(C)=O)c2)cc1` , I see its normalized growth listed as 0.976

Looking up CC(C)CCCC(C)[C@H]1CCC2C3C(=O)C=C4C[C@@H](O)CC[C@]4(C)C3CC[C@@]21C (some centres undefined) , I see its normalized growth listed as 1

Looking up `CN(C)CCCN1c2ccccc2Sc2ccc(C(F)(F)F)cc21` , I see its normalized growth listed as 1.01

Looking up `CC(C)(C)NC[C@H](O)c1ccc(O)c(CO)c1` , I see its normalized growth listed as 1.02

Looking up COc1ccc(C2Sc3ccccc3N(CCN(C)C)C(=O)C2OC(C)=O)cc1 (centres undefined) , I see its normalized growth listed as 0.953

Looking up `O=C(O)c1ccccc1` , I see its normalized growth listed as 0.971
